Numbers sourced from patent US9850283B2.

Quick reference for IC50 among some compounds
assaySystem: LK35.2-hPD-L1 cells / PE-labeled PD-1-Ig (Homo sapiens, UniProt Q9NZQ7)
Construct: expressed in transfected cells; host or cells: LK35.2 mouse B cell line
Sequence (Q9NZQ7 19-290): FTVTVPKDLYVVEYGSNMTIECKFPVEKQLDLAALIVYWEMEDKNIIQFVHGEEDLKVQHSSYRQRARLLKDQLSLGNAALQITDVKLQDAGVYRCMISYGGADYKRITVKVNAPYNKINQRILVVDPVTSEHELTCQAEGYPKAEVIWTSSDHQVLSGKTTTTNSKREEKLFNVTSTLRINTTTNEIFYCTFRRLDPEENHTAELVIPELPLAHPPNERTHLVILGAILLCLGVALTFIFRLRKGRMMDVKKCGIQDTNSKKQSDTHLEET
experiment: LK35.2-hPD-L1 cell binding high-content screening assay
Assay type: cell-based
experimentalParameters: cell binding assay, cell line not given; cluster symbol; read-out: CBA IC50 cluster
Positions of bridges follow the written chain, without caps; N, C: chain ends. Non-standard residues stand in square brackets, D forms with d. Residues, ends and D or L forms follow the SMILES beside them. ξ: configuration not given here. d(cisHyp) = O=C(O)[C@H]1C[C@@H](O)CN1; Hyp = O=C(O)[C@@H]1C[C@@H](O)CN1; NMeF = CN[C@@H](Cc1ccccc1)C(=O)O; AllylGly = C=CC[C@H](N)C(=O)O; Thr(3ξ) = CC(O)[C@H](N)C(=O)O; NMeNle = CCCC[C@H](NC)C(=O)O; NMeA = CN[C@@H](C)C(=O)O; Dab = NCC[C@H](N)C(=O)O; Dap = NC[C@H](N)C(=O)O; Sar = CNCC(=O)O

For orientation, consider the following solved cases.
>>> value("CCCC[C@H]1C(=O)N(C)[C@@H](CCCC)C(=O)N[C@@H](CCCNC(=N)N)C(=O)N[C@H](C(=O)NCC(N)=O)CSCC(=O)N[C@@H](Cc2ccccc2)C(=O)N(C)[C@@H](C)C(=O)N[C@@H](CC(N)=O)C(=O)N2CCC[C@H]2C(=O)N[C@@H](Cc2cnc[nH]2)C(=O)N[C@@H](C(C)O)C(=O)N(C)CC(=O)N[C@@H](Cc2c[nH]c3ccccc23)C(=O)N[C@@H](CO)C(=O)N[C@@H](Cc2c[nH]c3ccccc23)C(=O)N1C (some centres unmarked) [Example 6005] ({CH2CO}-F[NMeA]NPH[Thr(3ξ)][Sar]WSW[NMeNle][NMeNle]RCG-NH2; thioether N-14)")
"4.78 to 72.9 nM"
>>> value("CCCC[C@H]1C(=O)N(C)[C@@H](CCCC)C(=O)N[C@@H](CO)C(=O)N[C@H](C(=O)NCC(N)=O)CSCC(=O)N[C@@H](Cc2ccc(O)cc2)C(=O)N(C)[C@@H](C)C(=O)N[C@@H](CO)C(=O)N2CCC[C@H]2C(=O)N[C@@H](CO)C(=O)N[C@@H](CC(C)C)C(=O)N2C[C@H](O)C[C@H]2C(=O)N[C@@H](Cc2c[nH]c3ccccc23)C(=O)N[C@@H](CO)C(=O)N[C@@H](Cc2c[nH]c3ccccc23)C(=O)N1C [Example 5116] ({CH2CO}-Y[NMeA]SPSL[Hyp]WSW[NMeNle][NMeNle]SCG-NH2; thioether N-14)")
"4.78 to 72.9 nM"
>>> value("CCCC[C@H]1C(=O)N2C[C@H](O)C[C@@H]2C(=O)N[C@@H](CC(=O)O)C(=O)N[C@@H](C(C)C)C(=O)N(C)[C@@H](Cc2ccccc2)C(=O)N[C@@H](Cc2ccc(O)cc2)C(=O)N(C)CC(=O)N[C@@H](Cc2c[nH]c3ccccc23)C(=O)N[C@@H](Cc2ccc(O)cc2)C(=O)N[C@@H](CC(C)C)C(=O)N[C@H](C(=O)NCC(N)=O)CSCC(=O)N[C@@H](Cc2ccccc2)C(=O)N(C)[C@@H](Cc2ccccc2)C(=O)N1C [Example 3575] ({CH2CO}-F[NMeF][NMeNle][d(cisHyp)]DV[NMeF]Y[Sar]WYLCG-NH2; thioether N-13)")
"0.158 to 4.71 nM"
>>> value("C=CC[C@@H]1NC(=O)[C@H](Cc2c[nH]c3ccccc23)NC(=O)[C@@H]2CCCN2C(=O)[C@H](CC(C)C)NC(=O)[C@H](CN)NC(=O)[C@@H]2CCCN2C(=O)[C@H](CC(N)=O)NC(=O)[C@H](C)N(C)C(=O)[C@H](Cc2ccc(O)cc2)NC(=O)CSC[C@@H](C(=O)NCC(N)=O)NC(=O)[C@H](CC=C)NC(=O)[C@H](CCCC)N(C)C(=O)[C@H](CCCC)N(C)C(=O)[C@H](Cc2c[nH]c3ccccc23)NC1=O [Example 7022] ({CH2CO}-Y[NMeA]NP[Dap]LPW[AllylGly]W[NMeNle][NMeNle][AllylGly]CG-NH2; thioether N-14)")
"4.78 to 72.9 nM"
>>> value("CCCC[C@H]1C(=O)N(C)[C@@H](CCCC)C(=O)N[C@@H](C)C(=O)N[C@H](C(=O)NCC(N)=O)CSCC(=O)N[C@@H](Cc2ccc(O)cc2)C(=O)N(C)[C@@H](C)C(=O)N[C@@H](CC(N)=O)C(=O)N2CCC[C@H]2C(=O)N[C@@H](Cc2cnc[nH]2)C(=O)N[C@@H](CCC(N)=O)C(=O)N2C[C@H](O)C[C@H]2C(=O)N[C@@H](Cc2c[nH]c3ccccc23)C(=O)N[C@@H](CO)C(=O)N[C@@H](Cc2c[nH]c3ccccc23)C(=O)N1C")
"4.78 to 72.9 nM"
>>> value("CCCC[C@H]1C(=O)N(C)[C@@H](CCCC)C(=O)N[C@@H](CO)C(=O)N[C@H](C(=O)NCC(N)=O)CSCC(=O)N[C@@H](Cc2ccc(O)cc2)C(=O)N(C)[C@@H](C)C(=O)N[C@@H](CC(N)=O)C(=O)N2CCC[C@H]2C(=O)N[C@@H](Cc2c[nH]cn2)C(=O)N[C@@H](CCC(N)=O)C(=O)N2C[C@H](O)C[C@H]2C(=O)N[C@@H](Cc2c[nH]c3ccccc23)C(=O)N[C@@H](CO)C(=O)N[C@@H](Cc2c[nH]c3ccccc23)C(=O)N1C [Example 5121] ({CH2CO}-Y[NMeA]NPHQ[Hyp]WSW[NMeNle][NMeNle]SCG-NH2; thioether N-14)")
"4.78 to 72.9 nM"
>>> value("CCCC[C@H]1C(=O)N(C)[C@@H](CCCC)C(=O)N[C@@H](C)C(=O)N[C@H](C(=O)NCC(N)=O)CSCC(=O)N[C@@H](Cc2ccc(O)cc2)C(=O)N(C)[C@@H](C)C(=O)N[C@@H](CC(N)=O)C(=O)N2CCC[C@H]2C(=O)N[C@@H](CN)C(=O)N[C@@H](CCC(=O)O)C(=O)N2C[C@H](O)C[C@H]2C(=O)N[C@@H](Cc2c[nH]c3ccccc23)C(=O)N[C@@H](CCN)C(=O)N[C@@H](Cc2c[nH]c3ccccc23)C(=O)N1C [Example 5040] ({CH2CO}-Y[NMeA]NP[Dap]E[Hyp]W[Dab]W[NMeNle][NMeNle]ACG-NH2; thioether N-14)")
"0.158 to 4.71 nM"

For the compound shown here, CCCC[C@H]1C(=O)N(C)[C@@H](CCCC)C(=O)N[C@@H](CCCNC(=N)N)C(=O)N[C@H](C(=O)NCC(N)=O)CSCC(=O)N[C@@H](Cc2ccccc2)C(=O)N(C)[C@@H](C)C(=O)N[C@@H](CC(N)=O)C(=O)N2CCC[C@H]2C(=O)N[C@@H](Cc2cnc[nH]2)C(=O)N[C@@H](C(C)C)C(=O)N(C)CC(=O)N[C@@H](Cc2c[nH]c3ccccc23)C(=O)N[C@@H](CO)C(=O)N[C@@H](Cc2c[nH]c3ccccc23)C(=O)N1C [Example 6007] ({CH2CO}-F[NMeA]NPHV[Sar]WSW[NMeNle][NMeNle]RCG-NH2; thioether N-14) , give the reported IC50.
4.78 to 72.9 nM
